# assay protocol: Toxicity in Mus musculus ddY (mouse) assessed as mortality at 250 mg/kg, ip after 1 day
# Format: organism-based
# Set-up: dose 250 mg/kg, route intraperitoneal
# cond: in vivo
readout name: mortality at 24 h (%)
The answer is to be given in %; state only the numeric part.

Task item: # return recorded mortality at 24 h for entry `CN1C(=O)CSC1=S`
Reply: 20

---

# assay protocol: Toxicity in Mus musculus ddY (mouse) assessed as mortality at 4 mg/kg, ip after 1 day
# Format: organism-based
# Parameters: dose 4 mg/kg, route intraperitoneal
# cond: in vivo
readout name: mortality at 24 h

Task item: Item `NN1C(=O)CSC1=S` : provide mortality at 24 h
Reply: 20%
